Hey, just so you know, these numbers are from the supplement of paper PMC11451515.

The following compounds are shown together with reported cell viability values.
- Test system: P12-Ichikawa
- test_summary: cell viability relative to DMSO control; higher = less cytotoxic
- details: HPLM + 10% dialyzed FBS; 48 h; 0.0632 µM

{"compound": "CC1(C)O[C@@H]2C[C@H]3[C@@H]4C[C@H](F)C5=CC(=O)C=C[C@]5(C)[C@@]4(F)[C@@H](O)C[C@]3(C)[C@]2(C(=O)CO)O1", "cell viability (%)": 71.1}
{"compound": "O=C1c2ccccc2-[n+]2ccc3c([nH]c4ccccc43)c21", "cell viability (%)": 105}
{"compound": "COCC1(CO)C(=O)C2CCN1CC2 (stereo not drawn)", "cell viability (%)": 108}
{"compound": "C[C@]12COC(=O)C[C@@H]1CC[C@@H]1[C@@H]2CC[C@@]2(C)[C@H]1CC[C@]2(C)O", "cell viability (%)": 110}
{"compound": "c1ccc(CCCN2CCN(CCOC(c3ccccc3)c3ccccc3)CC2)cc1", "cell viability (%)": 99.2}
{"compound": "ClC1=CC=C(C=C1)C(C#N)C2=C(Cl)C=C(C=C2Cl)N3\\N=C/C(=O)NC3=O (stereo not drawn)", "cell viability (%)": 110}
{"compound": "OC[C@@H](O)[C@@H](O)[C@H](O)[C@@H](O)CO", "cell viability (%)": 127}
{"compound": "O=c1[nH]c(=O)n([C@H]2C[C@H](O)[C@@H](CO)O2)cc1/C=C/Br", "cell viability (%)": 102}
{"compound": "O=C1NC(=O)/C(=C/c2ccc3nccc(-c4ccncc4)c3c2)S1", "cell viability (%)": 98.4}
{"compound": "CC(C)OC(=O)/C1=C/N(CC(C)(C)C2=C1[NH]C3=CC=CC=C23)C(=O)C4=CC=C(F)C(=C4)F", "cell viability (%)": 89.4}
{"compound": "NC\\1=N\\C(=O)N(\\C=C1)[C@@H]2O[C@H](CO)[C@@H](O)[C@@H]2O", "cell viability (%)": 4.99}
{"compound": "CC(C)c1noc(N2CCC(COc3ccc(-c4ccc([S+](C)(=O)[O-])cc4)nc3)CC2)n1", "cell viability (%)": 122}
{"compound": "CC(C)(O)CC[C@@H](O)[C@](C)(O)[C@H]1CC[C@@]2(O)C/3=C/C(=O)[C@@H]4C[C@@H](O)[C@@H](O)C[C@]4(C)[C@H]3CC[C@]12C", "cell viability (%)": 102}
{"compound": "NNCCc1ccccc1", "cell viability (%)": 118}
{"compound": "C[C@]12CC[C@H]3[C@@H](CC[C@H]4NC(=O)\\C=C/[C@]34C)[C@@H]1CC[C@@H]2C(=O)NC5=CC(=CC=C5C(F)(F)F)C(F)(F)F", "cell viability (%)": 115}
{"compound": "COc1cc(OC2CCN(C)CC2)ccc1Nc1ncc2c(n1)n(C1CCCC1)c(=O)n2C", "cell viability (%)": 91.6}
{"compound": "CN(C)C1CCN(C(=O)c2ccc(NC(=O)Nc3nc(N4CCOCC4)nc(N4CCOCC4)n3)cc2)CC1", "cell viability (%)": 75.9}
{"compound": "O=C(O)Cn1nnc(-c2cc(N3CCC(Oc4cc(F)ccc4Br)CC3)no2)n1", "cell viability (%)": 116}

###

- Tested on: SEM cells
- test_summary: AUC of viability dose-response curve (% viability x log10 dose units); higher = less sensitive
- details: RPMI 5 mM glucose + 10% dialyzed FBS; 48 h
Mark True for AUC of viability dose-response curve under 400, False if at or over.

{"compound": "C[C@]12CCC(=O)C=C1CC[C@@H]1[C@@H]2[C@@H](O)C[C@@]2(C)[C@H]1CC[C@]2(O)C(=O)CO", "target_system": "SEM cells", "group": "False"}
{"compound": "CC1CNc2c(cccc2[S+](=O)([O-])N[C@@H](CCCNC(=N)N)C(=O)N2CC[C@@H](C)C[C@@H]2C(=O)O)C1 (some centres not stated)", "target_system": "SEM cells", "group": "False"}
{"compound": "COc1ccc([C@@H]2CC(=O)c3c(O)cc(O[C@@H]4O[C@H](CO[C@@H]5O[C@@H](C)[C@H](O)[C@@H](O)[C@H]5O)[C@@H](O)[C@H](O)[C@H]4O)cc3O2)cc1O", "target_system": "SEM cells", "group": "False"}
{"compound": "COc1ccc([S+](=O)([O-])N(C(C)=O)c2ccccc2/C=C/c2cc[n+]([O-])cc2)cc1", "target_system": "SEM cells", "group": "True"}
{"compound": "C[C@](O)(CS(=O)(=O)c1ccc(F)cc1)C(=O)Nc1ccc(C#N)c(C(F)(F)F)c1", "target_system": "SEM cells", "group": "False"}
{"compound": "ClC1=CC=C(C=C1)C(C#N)C2=C(Cl)C=C(C=C2Cl)N3\\N=C/C(=O)NC3=O (configuration not stated)", "target_system": "SEM cells", "group": "False"}

###

The following molecules are shown together with reported cell viability values.
- System: P12-Ichikawa
- test_summary: cell viability relative to DMSO control; higher = less cytotoxic
- details: RPMI 5 mM glucose + 10% FBS; 48 h; 0.0632 µM

{"molecule": "COC(=O)C[C@](O)(CCCC(C)(C)O)C(=O)O[C@@H]1C(OC)=CC23CCCN2CCc2cc4c(cc2[C@H]13)OCO4 (some centres undefined)", "cell viability / %": 91.5}
{"molecule": "CC(C)N[C@@H]1CCn2c(=O)[nH]c3cccc(c32)[C@H]1O", "cell viability / %": 114}
{"molecule": "O=c1[nH]c(=O)n([C@H]2C[C@H](O)[C@@H](CO)O2)cc1/C=C/Br", "cell viability / %": 105}
{"molecule": "Cn1cnc2c(F)c(Nc3ccc(Br)cc3F)c(C(=O)NOCCO)cc21", "cell viability / %": 92.3}
{"molecule": "CCC[S+]([O-])c1ccc2[nH]c(NC(=O)OC)nc2c1 (centres undefined)", "cell viability / %": 89.7}
{"molecule": "COCC1(CO)C(=O)C2CCN1CC2 (centres undefined)", "cell viability / %": 106}
{"molecule": "C[C@]12CC[C@@H]3c4ccc(O)cc4CC[C@H]3[C@@H]1[C@@H](O)[C@@H](O)[C@@H]2O", "cell viability / %": 123}
{"molecule": "CCOC(=O)N1CCN(/[N+]([O-])=N/Oc2ccc([N+](=O)[O-])cc2C#N)CC1", "cell viability / %": 118}
{"molecule": "C[C@]12CCC(=O)C=C1CC[C@@H]1[C@@H]2[C@@H](O)C[C@@]2(C)[C@H]1CC[C@]2(O)C(=O)CO", "cell viability / %": 113}

###

- Tested on: NOMO1
- test_summary: cell viability relative to DMSO control; higher = less cytotoxic
- details: RPMI 5 mM glucose + 10% dialyzed FBS; 48 h; 15.4 µM

{"compound": "COC(=O)C[C@](O)(CCCC(C)(C)O)C(=O)O[C@@H]1C(OC)=CC23CCCN2CCc2cc4c(cc2[C@H]13)OCO4 (stereo partly specified)", "cell viability, %": 103}
{"compound": "CCOC(=O)c1ccc(OC(=O)CCCCCNC(=N)N)cc1", "cell viability, %": 81.8}
{"compound": "CC(C)c1nc(CN(C)C(=O)N[C@H](C(=O)N[C@@H](Cc2ccccc2)C[C@H](O)[C@H](Cc2ccccc2)NC(=O)OCc2cncs2)C(C)C)cs1", "cell viability, %": 79.2}
{"compound": "C[C@@H]1COCCN1c1cc(C2([S@+](C)(=N)[O-])CC2)nc(-c2ccnc3[nH]ccc23)n1", "cell viability, %": 22}
{"compound": "CCN1CCN(c2ccc(Nc3cc(N(C)C(=O)Nc4c(Cl)c(OC)cc(OC)c4Cl)ncn3)cc2)CC1", "cell viability, %": 32.7}
{"compound": "N[S+]([O-])(=O)C1=C(Cl)C=C2\\N=C/N[S+]([O-])(=O)C2=C1", "cell viability, %": 105}
{"compound": "CN[C@H]1CCC2=CC(=C(OC)C(=C2C/3=C/C=C(OC)\\C(=O)/C=C13)OC)OC", "cell viability, %": 21.9}
{"compound": "CC[S+](=O)([O-])c1cccc(-c2cc(C(=O)NC3CCN(C)CC3)c(C)c3[nH]c4ncc(C)cc4c23)c1", "cell viability, %": 48.3}
{"compound": "C[C@]12CCC(=O)C=C1CC[C@@H]1[C@@H]2[C@@H](O)C[C@@]2(C)[C@H]1CC[C@]2(O)C(=O)CO", "cell viability, %": 116}
{"compound": "FC1=CC=C(C=C1)N2/C=C\\C=C(C(=O)NC3=CC=C(OC4=C5C=C[NH]C5=NC=C4)C(=C3)F)/C2=O", "cell viability, %": 115}
{"compound": "Cc1onc(-c2ccccc2Cl)c1C(=O)N[C@@H]1C(=O)N2[C@@H]1SC(C)(C)[C@@H]2C(=O)[O-]", "cell viability, %": 84.1}
{"compound": "Cc1nn(Cc2ccccc2Cl)c(C)c1CN(C)CC(O)COc1ccc(Cl)cc1 (stereo unspecified)", "cell viability, %": 75.3}
{"compound": "NC\\1=N\\C(=O)N(\\C=C1)[C@@H]2O[C@H](CO)[C@@H](O)[C@@H]2O", "cell viability, %": 12.6}
{"compound": "Nc1ncnc2c1ncn2[C@@H]1O[C@@H](CO)[C@H](O)[C@@H]1O", "cell viability, %": 155}
{"compound": "Cn1cnc2c(F)c(Nc3ccc(Br)cc3F)c(C(=O)NOCCO)cc21", "cell viability, %": 34.5}
{"compound": "O=c1[nH]c(=O)n([C@H]2C[C@H](O)[C@@H](CO)O2)cc1/C=C/Br", "cell viability, %": 130}
